// data source = patent US20100130424A1

Biological target: T1, human CRH receptor type 2 (human, UniProt Q13324 1-411)
T1 sequence (looked up): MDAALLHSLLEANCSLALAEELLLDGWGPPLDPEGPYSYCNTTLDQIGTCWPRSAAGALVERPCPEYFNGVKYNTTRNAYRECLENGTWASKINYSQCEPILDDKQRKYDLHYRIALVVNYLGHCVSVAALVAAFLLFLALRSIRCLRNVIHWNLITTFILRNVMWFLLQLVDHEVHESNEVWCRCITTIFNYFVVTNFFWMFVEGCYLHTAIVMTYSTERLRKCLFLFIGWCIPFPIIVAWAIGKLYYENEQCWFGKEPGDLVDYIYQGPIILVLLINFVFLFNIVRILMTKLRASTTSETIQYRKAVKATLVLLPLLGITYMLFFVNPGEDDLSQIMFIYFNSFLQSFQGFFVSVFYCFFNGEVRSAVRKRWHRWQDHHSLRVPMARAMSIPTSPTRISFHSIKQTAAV
Assay: cell-based or functional assay
No end group written: not given here.
measured-parameter: Log DR against h-SCP, cAMP (log10 ratio)
Dear colleague, please return just the value in log10 ratio, with no unit written.

Data point: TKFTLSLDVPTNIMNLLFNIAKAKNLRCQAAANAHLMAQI (NES-PEG (about 20 kDa; MW20000) on Cys 28; C-terminal amide) [Pegylated Cys-variant CRHR2 peptide agonist (NES linker, PEG about 20 kDa), SEQ ID NO: 82] ; Log DR against h-SCP, cAMP = 1.12

TKFTLSLDVPTNIMNLLFNIAKAKNLRAQACANAHLMAQI-NH2 [Cys-variant CRHR2 peptide agonist, SEQ ID NO: 32] has a reported Log DR against h-SCP, cAMP of 0.11

Summary for this binder, TKFTLSLDVPTNIMNLLFNIAKAKNLRAQAAANAHLMACI-NH2 [Cys-variant CRHR2 peptide agonist, SEQ ID NO: 40] : Log DR against h-SCP, cAMP is 0.55

Entry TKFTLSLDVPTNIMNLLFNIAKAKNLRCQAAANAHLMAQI (NES-PEG MW5000 on Cys 28; C-terminal amide) [Pegylated Cys-variant CRHR2 peptide agonist (NES-PEG MW5000), SEQ ID NO: 96] ; Log DR against h-SCP, cAMP = 1
